Test system: A375 (melanoma)
Assay: MTT in vitro cytotoxic activity assay, A375
Type: cell-based
Settings: Homo sapiens, A-375, cells exposed for 96 hours, read-out: Cytotoxicity activity IC50 (50% inhibition of cell proliferation)

>  <compound>
Clc1cccc(Nc2nc3c(nn4ccncc34)c3cnccc23)c1 [Compound (1)]

>  <units_text>
µM

>  <IC50>
3.2

$$$$

----------
Tested on: HCT116 (colon)
Assay: MTT in vitro cytotoxic activity assay, HCT116
Type: cell-based
Conditions: Homo sapiens, HCT-116, cells exposed for 96 hours, read-out: Cytotoxicity activity IC50 (50% inhibition of cell proliferation)
pIC50: −log10 of the molar value.
metric: pIC50

>  <molecule>
Clc1cccc(Nc2nc3c(nn4ccncc34)c3cnccc23)c1 [Compound (1)]

>  <study_system>
HCT116 (colon)

>  <metric>
pIC50

>  <assay_result>
5.82

$$$$

----------
System: MIAPaCa-2 (pancreas)
Assay: MTT in vitro cytotoxic activity assay, MIAPaCa-2
Assay type: cell-based
Conditions: Homo sapiens, MIA PaCa-2, cells exposed for 96 hours, read-out: Cytotoxicity activity IC50 (50% inhibition of cell proliferation)
pIC50: −log10 of the molar value.
metric: pIC50

>  <query_smiles>
Clc1cccc(Nc2nc3c(nn4ccncc34)c3cnccc23)c1

>  <study_system>
MIAPaCa-2 (pancreas)

>  <assay_result>
6.00

$$$$

----------
System: MDA-MB-231 (breast)
Assay: MTT in vitro cytotoxic activity assay, MDA-MB-231
Type: cell-based
Details: Homo sapiens, cells exposed for 96 hours, read-out: Cytotoxicity activity IC50 (50% inhibition of cell proliferation)
pIC50: −log10 of the molar value.
metric: pIC50

>  <compound>
Clc1cccc(Nc2nc3c(nn4ccncc34)c3cnccc23)c1 [Compound (1)]

>  <metric>
pIC50

>  <assay_result>
5.39

$$$$

----------
Target: recombinant human CK2 (RRββ-holoenzyme) (Homo sapiens)
Sequence (P68400 whole entry): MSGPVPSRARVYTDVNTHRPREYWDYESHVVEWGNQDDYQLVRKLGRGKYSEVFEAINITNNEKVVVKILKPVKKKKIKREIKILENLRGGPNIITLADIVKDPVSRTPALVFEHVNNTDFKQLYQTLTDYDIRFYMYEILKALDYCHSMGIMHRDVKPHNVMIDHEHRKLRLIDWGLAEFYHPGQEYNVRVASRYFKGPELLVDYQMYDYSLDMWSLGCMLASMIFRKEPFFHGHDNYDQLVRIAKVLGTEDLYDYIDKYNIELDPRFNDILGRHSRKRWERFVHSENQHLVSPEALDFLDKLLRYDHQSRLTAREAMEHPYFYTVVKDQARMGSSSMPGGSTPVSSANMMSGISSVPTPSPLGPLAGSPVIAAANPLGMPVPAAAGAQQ
Sequence (P67870 whole entry partner): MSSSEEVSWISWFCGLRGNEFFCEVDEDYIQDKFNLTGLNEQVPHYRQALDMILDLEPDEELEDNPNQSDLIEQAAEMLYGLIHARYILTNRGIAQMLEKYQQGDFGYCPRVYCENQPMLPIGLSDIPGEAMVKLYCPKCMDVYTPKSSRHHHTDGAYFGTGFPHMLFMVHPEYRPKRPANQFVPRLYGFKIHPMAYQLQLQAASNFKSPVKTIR
Assay: CK2 Kinase Assay (33P-ATP, filter plate)
Conditions: final ATP concentration 15 μM, 10 minutes at 30° C.; read-out: protein kinase CK2 IC50
pIC50: −log10 of the molar value.
metric: pIC50

>  <query_smiles>
Clc1cccc(Nc2nc3c(nn4ccncc34)c3cnccc23)c1

>  <metric>
pIC50

>  <assay_result>
7.66

$$$$

These measurements were taken from patent US12215107B1.
